Test system: Plasmodium falciparum
Assay: Antimalarial activity against CQ-resistant Plasmodium falciparum W2
Assay type: functional, organism-based
observationType: pIC50
// returns pIC50 (minus log10 of molar concentration), number only

Field request: pIC50 | item: COc1ccc(/C=C/C(=O)c2ccccc2)cc1S(=O)(=O)N1CCOCC1 5.69

These measurements were taken from ChEMBL document CHEMBL3352019.
